- Target Or Test System: T1, CD138 on the surface of U266 cells (CD138+ human lymphoblastic myeloma cell line) (human, UniProt P18827 23-310)
- T1 construct: whole, on cells; also called cell surface CD138; membrane CD138
- T1 sequence (looked up): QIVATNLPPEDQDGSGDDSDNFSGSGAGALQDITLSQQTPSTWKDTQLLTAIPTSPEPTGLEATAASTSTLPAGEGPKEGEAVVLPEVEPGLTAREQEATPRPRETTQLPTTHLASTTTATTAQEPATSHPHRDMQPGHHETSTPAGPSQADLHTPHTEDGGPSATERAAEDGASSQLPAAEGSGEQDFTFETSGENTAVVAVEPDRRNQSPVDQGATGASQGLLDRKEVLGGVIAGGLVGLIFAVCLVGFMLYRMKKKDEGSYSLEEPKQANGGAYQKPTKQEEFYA
- Procedure Details: flow cytometry on U266 cells at pH 6.0, MFI against antibody concentration (0.01-10 ug/mL)

>  <Binder>
Ab175 (antibody, V domains shown, also called mAb Ab175) VH: EVQLVQSGAEVKKPGASVKVSCKASGYSFSSYYMHWVRQAPGQGLEWMGTIHPSDSTTNYNQKFQGRVTMTVDTSTRTAYMELSSLRSEDTAVYYCADFLYWGQGTTVTVSS VL: DIVMTQTPLSLSVTPGQPASISCKSSKSLLYKDGHTYLNWFLQKPGQSPQLLIYVVSTRASGVPDRFSGSGSGTDFTLKISRVEAEDVGVYYCQQLVEYPYTFGQGTKLEIK

>  <EC50 (read off the curve)>
~0.2 µg/mL

$$$$
>  <Binder>
Antibody Ab17 (antibody, V domains shown, also called mAb 17; Mab 17) VH: EVQLVQSGAEVKKPGASVKVSCKASGYSFSSYYMHWVRQAPGQGLEWMGTIHPSDSTTNYNQKFQGRVTMTVDTSTRTAYMELSSLRSEDTAVYYCADFVYWGQGTTVTVSS VL: DIVMTQTPLSLSVTPGQPASISCKSSKSLLYKDGHTYLNWFLQKPGQSPQLLIYVVSTRASGVPDRFSGSGSGTDFTLKISRVEAEDVGVYYCQQLVEYPYTFGQGTKLEIK

>  <EC50 (read off the curve)>
~0.5 µg/mL

$$$$
>  <Binder>
Antibody Ab43 (antibody, V domains shown) VH: EVQLVQSGAEVKKPGASVKVSCKASGYSFSSYYMHWVRQAPGQGLEWMGTIHPSDSTTNYNQKFQGRVTMTVDTSTRTAYMELSSLRSEDTAVYYCADFVYWGQGTTVTVSS VL: DIVMTQTPLSLSVTPGQPASISCKSSKSLLYKDGKTYLLWFLQKPGQSPQLLIYVVSTRASGVPDRFSGSGSGTDFTLKISRVEAEDVGVYYCQQLVEYPYTFGQGTKLEIK

>  <EC50 (read off the curve)>
~0.5 µg/mL

$$$$
>  <Binder>
Antibody Ab32 (antibody, V domains shown) VH: EVQLVQSGAEVKKPGASVKVSCKASGYSFSSYYMHWVRQAPGQGLEWMGTIHPSDSTTNYNQKFQGRVTMTVDTSTRTAYMELSSLRSEDTAVYYCADFLYWGQGTTVTVSS VL: DIVMTQTPLSLSVTPGQPASISCKSSKSLLYKDGKTYLNWFLQKPGQSPQLLIYVVSTRASGVPDRFSGSGSGTDFTLKISRVEAEDVGVYYCQQLVEYPYTFGQGTKLEIK

>  <EC50 (read off the curve)>
~1 µg/mL

$$$$
